System: rape
ASSAY INFO: Test B pre/postemergence rape
Format: in vivo, Brassica napus
TEST CONDITIONS: Preemergence, Rate 125 g/ha; scale of 0 to 10 where 0 is no effect and 10 is complete control
MEASURE NAME: Plant response rating, Rape
Please reply with the number alone, leaving off any unit.

Hello, I am looking for reported Plant response rating, Rape with rape for CCN(C(=O)n1oc(=O)n(C2CCCCCC2)c1=O)C1CCCCC1 . Could you help?
0

Hello, I am looking for reported Plant response rating, Rape with rape for CC(C)N(C(=O)n1oc(=O)n(C(C)C2CCC2)c1=O)c1ccc(F)cc1F (centres unmarked) . Could you help?
0

Hello, I am looking for reported Plant response rating, Rape with rape for CC(C)N(C(=O)n1oc(=O)n(CC2=NOCCO2)c1=O)c1ccc(F)cc1F . Could you help?
4

Hello, I am looking for reported Plant response rating, Rape with rape for CC(C)N(C(=O)n1oc(=O)n(C(CF)CF)c1=O)c1ccccc1 . Could you help?
10

Hello, I am looking for reported Plant response rating, Rape with rape for CCn1ncc(Cn2c(=O)on(C(=O)N(c3ccccc3)C(C)C)c2=O)c1Cl . Could you help?
0
